Record form. Attribute: MIC. Fill in for each entry.
- System: Staphylococcus aureus
- EXPERIMENT_DESCRIPTION: microbe, parasite or virus in culture
- Assay type: functional
- REPORTED_CONDITIONS: ATCC 25923
- Description: Antibacterial activity against methicillin-sensitive Staphylococcus aureus ATCC 25923 by CLSI agar microdilution method
// return numeric value only (unit: µg/mL, not printed)

Given the entry CN[C@H](CC(C)C)C(=O)N[C@H]1C(=O)N[C@@H](CC(N)=O)C(=O)N[C@H]2C(=O)N[C@H]3C(=O)N[C@H](C(=O)N[C@@H](C(=O)O)c4cc(O)cc(O)c4-c4cc3ccc4O)[C@H](O[C@H]3C[C@](C)(N)[C@H](O)[C@H](C)O3)c3ccc(c(Cl)c3)Oc3cc2cc(c3O[C@@H]2O[C@H](CO)[C@@H](O)[C@H](O)[C@H]2O[C@H]2C[C@](C)(NCc3ccc(OC)cc3)[C@H](O)[C@H](C)O2)Oc2ccc(cc2Cl)[C@H]1O , report its measured MIC.
1

Item CCCCN[C@@]1(C)C[C@H](O[C@H]2[C@H](Oc3c4cc5cc3Oc3ccc(cc3Cl)[C@@H](O[C@H]3C[C@](C)(N)[C@H](O)[C@H](C)O3)[C@@H]3NC(=O)[C@H](NC(=O)[C@@H]5NC(=O)[C@H](CC(N)=O)NC(=O)[C@H](NC(=O)[C@@H](CC(C)C)NC)[C@H](O)c5ccc(c(Cl)c5)O4)c4ccc(O)c(c4)-c4c(O)cc(O)cc4[C@H](C(=O)O)NC3=O)O[C@H](CO)[C@@H](O)[C@@H]2O)O[C@@H](C)[C@H]1O has what recorded MIC?
0.5
